- target-desc: recombinant human Cox-2 (r-hu Cox-2) (Homo sapiens, UniProt P35354)
- Construct: made in house; host or cells: baculovirus/Sf9 insect cells (microsomes)
- Sequence (P35354 18-604): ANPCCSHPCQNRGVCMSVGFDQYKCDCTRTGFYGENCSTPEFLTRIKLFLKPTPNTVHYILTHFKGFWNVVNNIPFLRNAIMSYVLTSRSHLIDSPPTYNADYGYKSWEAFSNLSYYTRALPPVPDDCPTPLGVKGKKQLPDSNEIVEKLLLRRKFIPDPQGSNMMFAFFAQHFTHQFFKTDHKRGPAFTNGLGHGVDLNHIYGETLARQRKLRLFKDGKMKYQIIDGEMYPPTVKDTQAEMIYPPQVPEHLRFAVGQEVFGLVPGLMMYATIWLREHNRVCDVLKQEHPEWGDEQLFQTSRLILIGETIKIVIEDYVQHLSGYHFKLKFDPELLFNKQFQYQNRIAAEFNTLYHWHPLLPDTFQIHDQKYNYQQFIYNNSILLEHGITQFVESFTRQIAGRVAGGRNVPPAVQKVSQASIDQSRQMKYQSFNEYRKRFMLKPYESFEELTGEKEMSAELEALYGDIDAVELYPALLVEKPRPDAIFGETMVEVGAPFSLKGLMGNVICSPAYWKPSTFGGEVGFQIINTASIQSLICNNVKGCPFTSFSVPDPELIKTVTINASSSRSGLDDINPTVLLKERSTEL
- assay-summary: Recombinant human PGHS-2 enzyme assay (RHUCX2)
- Assay type: biochemical
- test-context: 1 μM; read-out: RHUCX2 % Inh. at Dose
assay-readout: inhibition at 1 µM
Note to self: number, then unit, no commentary.

In [3]: df
Out[3]:
                                   compound  reading
0  CC(C)CCOc1c(-c2ccc(S(C)(=O)=O)cc2)cnn(C(C)(C)C)c1=O [Example 330]      85%

Query inhibition at 1 µM for CC(C)(C)COc1c(-c2ccc(S(C)(=O)=O)cc2)cnn(-c2cccc(Cl)c2)c1=O [Example 338] 100%
